Lab note: MIC readings collected with Staphylococcus aureus USA 300 for the following compounds.

>  <Compound>
CC[C@H](C)[C@H](N)C(=O)N1CCC[C@H]1C(=O)N1CCC[C@H]1C(=O)N[C@@H](Cc1ccccc1)C(=O)N[C@H](C(=O)N[C@@H](CCCCN)C(=O)N[C@@H](CCCCN)C(=O)N[C@H](C(=O)N[C@@H](CC(C)C)C(=O)N[C@H](C(=O)N[C@H](C(=O)N[C@H](C(=O)N[C@@H](Cc1ccccc1)C(N)=O)C(C)C)[C@@H](C)O)[C@@H](C)O)C(C)C)[C@@H](C)CC [IPPFIKKVLTTVF]

>  <Measurement qualifier>
=

>  <MIC / µM>
25

$$$$
>  <Compound>
NC(=O)[C@H](Cc1c[nH]c2ccccc12)NC(=O)[C@H](CCCN=C(N)N)NC(=O)[C@H](Cc1c[nH]c2ccccc12)NC(=O)[C@H](CCCN=C(N)N)NC(=O)[C@H](Cc1c[nH]c2ccccc12)NC(=O)[C@H](CCCN=C(N)N)NC(=O)[C@H](Cc1c[nH]c2ccccc12)NC(=O)[C@@H](N)CCCN=C(N)N [RWRWRWRW]

>  <Measurement qualifier>
=

>  <MIC / µM>
12.5

$$$$
>  <Compound>
CC[C@H](C)[C@H](NC(=O)[C@H](CCCCN)NC(=O)[C@H](CCC(N)=O)NC(=O)[C@@H](NC(=O)[C@@H](NC(=O)[C@H](CCCCN)NC(=O)[C@H](CCCCN)NC(=O)[C@H](Cc1ccccc1)NC(=O)[C@H](CCC(=O)O)NC(=O)CN)[C@@H](C)CC)C(C)C)C(=O)N[C@@H](CCCCN)C(=O)N[C@@H](CC(=O)O)C(=O)N[C@@H](Cc1ccccc1)C(=O)N[C@@H](CC(C)C)C(=O)N[C@@H](CCCCN)C(=O)N[C@@H](CC(N)=O)C(=O)N[C@@H](CC(C)C)C(=O)N[C@H](C(N)=O)C(C)C [GEFKKIVQKIKDFLKNLV]

>  <Measurement qualifier>
≥

>  <MIC / µM>
120

$$$$
>  <Compound>
CC[C@H](C)[C@H](NC(=O)[C@H](CC(C)C)NC(=O)[C@@H]1CCCN1C(=O)[C@H](Cc1ccccc1)NC(=O)[C@H](CC(C)C)NC(=O)[C@@H](N)Cc1ccccc1)C(=O)N[C@H](C(=O)N[C@@H](CO)C(=O)N[C@@H](Cc1ccccc1)C(=O)N[C@@H](CC(C)C)C(=O)N[C@@H](CO)C(=O)N[C@@H](CCCCN)C(=O)N[C@H](C(=O)N[C@@H](CC(C)C)C(=O)O)C(C)C)[C@@H](C)O [FLFPLITSFLSKVL]

>  <Measurement qualifier>
≥

>  <MIC / µM>
50

$$$$

The reported measurements were obtained from DBAASP.
